Target or system: T1, human NPR1-ANP complex (human, UniProt P01160 124-151, limits assumed)
T1 construct: Receptor antigen measured in the presence of ANP; also called hNPR1 + ANP; hNPR1-ANP-complex
T1 sequence: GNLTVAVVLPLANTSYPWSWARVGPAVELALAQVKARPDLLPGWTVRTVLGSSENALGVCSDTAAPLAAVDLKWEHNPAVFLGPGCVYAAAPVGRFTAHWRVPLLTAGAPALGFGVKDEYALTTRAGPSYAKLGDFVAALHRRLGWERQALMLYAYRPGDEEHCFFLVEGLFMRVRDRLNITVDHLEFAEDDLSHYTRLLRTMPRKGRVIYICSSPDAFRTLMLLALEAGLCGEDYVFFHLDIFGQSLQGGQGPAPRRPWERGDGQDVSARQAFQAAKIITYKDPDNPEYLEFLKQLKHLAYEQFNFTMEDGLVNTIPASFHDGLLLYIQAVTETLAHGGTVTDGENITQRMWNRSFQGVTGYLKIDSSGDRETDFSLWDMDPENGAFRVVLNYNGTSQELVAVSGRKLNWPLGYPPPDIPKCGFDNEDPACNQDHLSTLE
T1 sequence (peptide): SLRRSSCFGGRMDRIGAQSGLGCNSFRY
Assay remarks: ELISA, 1 uM IgG, +100 nM ANP
Reported property: ELISA IgG binding at 1 uM IgG (unit not given)
Just the number, please, no unit after it.

Solved cases below.
Binder	Result value
YY01 IgG (YY01_LALA) (antibody, V domains shown) VH: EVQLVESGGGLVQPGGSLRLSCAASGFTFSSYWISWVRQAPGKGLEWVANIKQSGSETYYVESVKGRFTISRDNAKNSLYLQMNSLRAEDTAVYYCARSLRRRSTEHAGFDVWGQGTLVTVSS VL: DIQMTQSPSSLSASVGDRVTITCRASQGISNYLAWYQQKPGKVPKLLIYAASTLQSGVPSRFSGSGSGTDFTLTISSLQPEDVATYYCQQADKFPYTFGQGTKVEIKR	76
YY06 IgG (YY06_LALA) (antibody, V domains shown) VH: EVQLLESGGGLVQPGGSLRLSCAASGFTFSSYAISWVRQAPGKGLEWVSAISGSGGSTYYAESVKGRFTISRDNSKNTLYLQMNSLRAEDTAVYYCARPYLGDRRSYGFDHWGQGTLVTVSS VL: QSALTQPASVSGSPGQSITISCTGTSSDVGSYNLVSWYQQHPGKAPKLMIYEGSKRPSGVSNRFSGSKSGNTASLTISGLQAEDEADYYCSSYGFHIVVVVFGGGTKLTVLG	102

Reported ELISA IgG binding at 1 uM IgG (unit not given) ( YY07 IgG (YY07_LALA) (antibody, V domains shown) VH: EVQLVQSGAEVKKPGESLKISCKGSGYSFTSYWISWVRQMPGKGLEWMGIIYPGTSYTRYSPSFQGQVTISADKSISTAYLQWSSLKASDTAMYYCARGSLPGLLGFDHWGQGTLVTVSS VL: QSVLTQPPSVSGAPGQRVTISCTGSSSNIGAGYDVHWYQQLPGTAPKLLIYGNSNRPNGVPDRFSGSKSGTSASLAITGLQAEDEADYYCQSYDSPTSSSVFGGGTKLTVLG ) = 24
